Cited source: PubChem BioAssay AID1159580

# EXPERIMENTAL_PROTOCOL: chemical genetic growth profiling, strain panel (AID 1159580);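 further: tested at 20 µM; growth read once vehicle control cultures reached saturation at 30 °C; 1 = growth at the plate median or of vehicle wells; lower values mean less growth of the strain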
# CONDITION_NOTES: S. cerevisiae deletion strains, growth OD, locus YHR129C, strain ARP1, active compounds read low
The whole screen tested about 5,500 compounds, of which about 2,000 (36%) were called active. Inconclusive results (about 18%) are left out. Some of the results follow.
PROPERTY_LABEL: normalized growth

>  <COMPOUND>
COC(C)(C)CCC[C@H](C)C/C=C/C(C)=C/C(=O)OC(C)C

>  <PROPERTY_LABEL>
normalized growth

>  <MEASURED_RESULT>
0.998

$$$$
>  <COMPOUND>
C[C@H]1[C@H]2CCC3C4CC=C5C[C@@H](N(C)C)CC[C@]5(C)C4CC[C@@]32CN1C (stereo partly drawn)

>  <PROPERTY_LABEL>
normalized growth

>  <MEASURED_RESULT>
0.994

$$$$
>  <COMPOUND>
Nc1ccc(S(=O)(=O)Nc2ccc(Cl)nn2)cc1

>  <PROPERTY_LABEL>
normalized growth

>  <MEASURED_RESULT>
1.01

$$$$
>  <COMPOUND>
OC[C@@H](O)[C@@H](O[C@@H]1O[C@H](CO)[C@@H](O)[C@H](O)[C@H]1O)[C@H](O)[C@@H](O)CO

>  <PROPERTY_LABEL>
normalized growth

>  <MEASURED_RESULT>
1.01

$$$$
>  <COMPOUND>
CC1(C)C(O)CC(O)C2(C)C1CC(O)C1(C)C2CCC2(C)C(c3ccoc3)CC3OC321 (stereo not drawn)

>  <PROPERTY_LABEL>
normalized growth

>  <MEASURED_RESULT>
0.998

$$$$
>  <COMPOUND>
Nc1nc2c(ncn2C2C[C@H](O)[C@@H](CO)O2)c(=O)[nH]1 (stereo partly drawn)

>  <PROPERTY_LABEL>
normalized growth

>  <MEASURED_RESULT>
1

$$$$
>  <COMPOUND>
COc1cc2c(c(OC)c1OC)-c1ccc(OC)c(=O)cc1[C@@H](NC(C)=O)CC2

>  <PROPERTY_LABEL>
normalized growth

>  <MEASURED_RESULT>
1.01

$$$$
>  <COMPOUND>
Cc1ccc2cc3c(ccc4ccccc43)c3c2c1CC3

>  <PROPERTY_LABEL>
normalized growth

>  <MEASURED_RESULT>
0.983

$$$$
>  <COMPOUND>
O=c1[nH]c(=O)n(C2C[C@@H](O)[C@@H](CO)O2)cc1F (stereo partly drawn)

>  <PROPERTY_LABEL>
normalized growth

>  <MEASURED_RESULT>
1.01

$$$$
>  <COMPOUND>
CC(=O)OC1CC(OC(C)=O)C2(C)C(CC(OC(C)=O)C3(C)C2CCC2(C)C(c4ccoc4)CC4OC423)C1(C)C (stereo not drawn)

>  <PROPERTY_LABEL>
normalized growth

>  <MEASURED_RESULT>
1.02

$$$$
>  <COMPOUND>
Cc1occc(=O)c1/C=C/O

>  <PROPERTY_LABEL>
normalized growth

>  <MEASURED_RESULT>
1

$$$$
>  <COMPOUND>
O[N+]1=CC=CCC1=S.On1ccccc1=S.[Zn]

>  <PROPERTY_LABEL>
normalized growth

>  <MEASURED_RESULT>
0.0604

$$$$
>  <COMPOUND>
CC(=O)c1c(O)c(C)c(O)c2c1OC1=CC(=O)C(C(C)=O)C(=O)C12C (stereo not drawn)

>  <PROPERTY_LABEL>
normalized growth

>  <MEASURED_RESULT>
1.02

$$$$
>  <COMPOUND>
Cc1ccsc1/C=C/C1=NCCCN1C

>  <PROPERTY_LABEL>
normalized growth

>  <MEASURED_RESULT>
1

$$$$
>  <COMPOUND>
Oc1c(Br)cc(Br)c2cccnc12

>  <PROPERTY_LABEL>
normalized growth

>  <MEASURED_RESULT>
0.059

$$$$
>  <COMPOUND>
Nc1ncn([C@@H]2O[C@H](CO)[C@@H](O)[C@H]2O)c(=O)n1

>  <PROPERTY_LABEL>
normalized growth

>  <MEASURED_RESULT>
1.01

$$$$
>  <COMPOUND>
O=C(O)CCC(=O)C(=O)O

>  <PROPERTY_LABEL>
normalized growth

>  <MEASURED_RESULT>
1.02

$$$$
>  <COMPOUND>
NC[C@H](O)c1ccc(O)c(O)c1

>  <PROPERTY_LABEL>
normalized growth

>  <MEASURED_RESULT>
0.999

$$$$
>  <COMPOUND>
C[C@H](N)[C@H](O)c1ccc(O)c(O)c1

>  <PROPERTY_LABEL>
normalized growth

>  <MEASURED_RESULT>
0.996

$$$$
>  <COMPOUND>
CC1(C)C(C(Cl)Cl)C2(Cl)C(Cl)C(Cl)C1(Cl)C2(Cl)Cl (stereo not drawn)

>  <PROPERTY_LABEL>
normalized growth

>  <MEASURED_RESULT>
0.996

$$$$
>  <COMPOUND>
NCC(CC(=O)O)c1ccc(Cl)s1 (stereo not drawn)

>  <PROPERTY_LABEL>
normalized growth

>  <MEASURED_RESULT>
0.99

$$$$
>  <COMPOUND>
CC1(C)CC2C1(O)CCC1(C)C=CC(O)C21CO (stereo not drawn)

>  <PROPERTY_LABEL>
normalized growth

>  <MEASURED_RESULT>
0.997

$$$$
>  <COMPOUND>
C/C=C/c1ccc2c(c1)OCO2

>  <PROPERTY_LABEL>
normalized growth

>  <MEASURED_RESULT>
1.01

$$$$
>  <COMPOUND>
NCC(O)c1ccc(O)cc1 (stereo not drawn)

>  <PROPERTY_LABEL>
normalized growth

>  <MEASURED_RESULT>
0.994

$$$$
>  <COMPOUND>
NCCCC[C@H](N[C@@H](CCc1ccccc1)C(=O)O)C(=O)N1CCC[C@H]1C(=O)O

>  <PROPERTY_LABEL>
normalized growth

>  <MEASURED_RESULT>
0.997

$$$$
>  <COMPOUND>
O=C1C=CC2=C3c4cc(O)c(O)cc4CC3(O)COC2=C1O (stereo not drawn)

>  <PROPERTY_LABEL>
normalized growth

>  <MEASURED_RESULT>
0.967

$$$$
>  <COMPOUND>
C=CC(C1=CC(=O)C(OC)=CC1=O)c1ccc(O)cc1 (stereo not drawn)

>  <PROPERTY_LABEL>
normalized growth

>  <MEASURED_RESULT>
0.991

$$$$
>  <COMPOUND>
Oc1ccc(Cl)c2cccnc12

>  <PROPERTY_LABEL>
normalized growth

>  <MEASURED_RESULT>
0.0599

$$$$
>  <COMPOUND>
Nc1ccc(C(=O)NCC(=O)O)cc1

>  <PROPERTY_LABEL>
normalized growth

>  <MEASURED_RESULT>
1

$$$$
>  <COMPOUND>
Cc1occc(=O)c1O

>  <PROPERTY_LABEL>
normalized growth

>  <MEASURED_RESULT>
1.01

$$$$
>  <COMPOUND>
CC1(C)C(=O)C=CC2(C)C3CCC4(C)C(c5ccoc5)CC5OC54C3C(O)CC12 (stereo not drawn)

>  <PROPERTY_LABEL>
normalized growth

>  <MEASURED_RESULT>
0.977

$$$$
>  <COMPOUND>
CN/C(=C\[N+](=O)[O-])NCCSCc1ccc(CN(C)C)o1

>  <PROPERTY_LABEL>
normalized growth

>  <MEASURED_RESULT>
1.02

$$$$
>  <COMPOUND>
COc1cc(OC)c2c(=O)c(-c3ccccc3)c(C)oc2c1OC

>  <PROPERTY_LABEL>
normalized growth

>  <MEASURED_RESULT>
1

$$$$
>  <COMPOUND>
CS(=O)(=O)CCCCN=C=S

>  <PROPERTY_LABEL>
normalized growth

>  <MEASURED_RESULT>
0.865

$$$$
>  <COMPOUND>
CSCCC(NC=O)C(=O)NC(C)C(=O)O (stereo not drawn)

>  <PROPERTY_LABEL>
normalized growth

>  <MEASURED_RESULT>
0.996

$$$$
>  <COMPOUND>
O=C1O[C@H](C(O)CO)C(O)=C1O (stereo partly drawn)

>  <PROPERTY_LABEL>
normalized growth

>  <MEASURED_RESULT>
1

$$$$
>  <COMPOUND>
CC(Cc1ccc(O)c(O)c1)C(C)Cc1ccc(O)c(O)c1 (stereo not drawn)

>  <PROPERTY_LABEL>
normalized growth

>  <MEASURED_RESULT>
0.73

$$$$
>  <COMPOUND>
CN[C@H](CC(=O)O)C(=O)O

>  <PROPERTY_LABEL>
normalized growth

>  <MEASURED_RESULT>
0.995

$$$$
